target-or-system: T1, dog activated Protein C (dog, UniProt Q28278 43-456)
T1 construct: mature; also called dog aPC; dAPC
T1 sequence (looked up): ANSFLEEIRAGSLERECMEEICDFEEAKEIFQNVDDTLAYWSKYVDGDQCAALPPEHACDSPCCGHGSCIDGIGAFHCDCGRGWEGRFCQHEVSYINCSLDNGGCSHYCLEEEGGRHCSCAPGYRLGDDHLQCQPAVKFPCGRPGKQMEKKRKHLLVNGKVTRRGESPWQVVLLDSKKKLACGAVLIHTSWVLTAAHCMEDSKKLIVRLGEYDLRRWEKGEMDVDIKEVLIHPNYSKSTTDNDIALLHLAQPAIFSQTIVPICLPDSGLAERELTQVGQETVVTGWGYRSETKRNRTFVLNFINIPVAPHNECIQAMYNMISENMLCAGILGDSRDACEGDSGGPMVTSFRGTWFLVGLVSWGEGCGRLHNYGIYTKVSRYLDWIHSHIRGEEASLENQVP
assay-text: direct ELISA, antigen coated, Fab
pEC50: −log10 of the molar value.
Reported pEC50 is given for each of the following binders.
recorded-metric: pEC50

>  <binder>
C25K23 Fab (Fab, V domains shown, Human Fab (lambda) from a phage library, expressed in E. coli; also called Fab C25K23) VH: EVQLLESGGGLVQPGGSLRLSCAASGFTFSSYWMSWVRQAPGKGLEWVSGVSWNGSRTHYADSVKGRFTISRDNSKNTLYLQMNSLRAEDTAVYYCALTGRSGWMRFPNWFDPWGQGTLVTVTS VL: QSVLTQPPSASGTPGQRVTISCTGSSSNIGAAYDVHWYQQLPGTAPKLLIYGNNKRPSGVPDRFSGSKSGTSASLAISGLRSEDEADYYCQSYDSSLSGSVFGGGTKLTVLG

>  <reported>
8.09

$$$$
>  <binder>
C7A23 Fab (Fab, V domains shown, Human Fab (lambda) from a phage library, expressed in E. coli) VH: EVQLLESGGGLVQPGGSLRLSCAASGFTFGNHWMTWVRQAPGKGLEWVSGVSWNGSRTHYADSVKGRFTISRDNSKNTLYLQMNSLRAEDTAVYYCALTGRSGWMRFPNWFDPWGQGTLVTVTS VL: QSVLTQPPSASGTPGQRVTISCSGSSSNIGNNYVSWYQQLPGTAPKLLIYRNNQRPSGVPDRFSGSKSGTSASLAISGLRSEDEADYYCQSYDSDLSGPYVLFGGGTKLTVLG

>  <reported>
8.22

$$$$
>  <binder>
T46J23 Fab (Fab, V domains shown, Human Fab (lambda), expressed in E. coli) VH: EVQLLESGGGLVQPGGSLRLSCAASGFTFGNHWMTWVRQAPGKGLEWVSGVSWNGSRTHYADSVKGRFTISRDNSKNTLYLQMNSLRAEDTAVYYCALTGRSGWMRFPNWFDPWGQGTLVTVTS VL: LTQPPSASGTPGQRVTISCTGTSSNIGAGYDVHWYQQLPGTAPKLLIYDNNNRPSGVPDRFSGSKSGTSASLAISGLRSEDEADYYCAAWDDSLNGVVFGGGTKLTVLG

>  <reported>
7.78

$$$$
>  <binder>
C7I7 Fab (Fab, V domains shown, Human Fab (lambda) from a phage library, expressed in E. coli; also called C717) VH: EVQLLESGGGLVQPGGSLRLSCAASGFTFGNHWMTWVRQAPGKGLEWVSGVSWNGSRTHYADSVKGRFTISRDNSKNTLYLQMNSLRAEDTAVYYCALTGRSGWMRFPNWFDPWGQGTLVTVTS VL: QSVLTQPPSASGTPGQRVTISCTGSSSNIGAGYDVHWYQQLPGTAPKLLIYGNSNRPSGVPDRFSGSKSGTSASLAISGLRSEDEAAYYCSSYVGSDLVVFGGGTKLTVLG

>  <reported>
8.41

$$$$
